Sourced from PubChem BioAssay (NCI)

# Tested on: MDA-MB-231 breast
# assay.info: NCI tumour cell line growth inhibition, 48 h
Known log10(TGI) of a selection of compounds
Use the decimal logarithm of TGI (µM).

State the recorded log10(TGI) for this entry: `CC(=O)c1cccc(Nc2nc3ccc(Cl)cc3c3[nH]c4ccccc4c23)c1` 1.80

* * *

# System: SK-MEL-5 melanoma
# assay.info: NCI tumour cell line growth inhibition, 48 h
Where a SMILES comes first, the peptide text is derived from it. The star is where a group is joined. Ethyl(2-NMe3+) = C[N+](C)(C)CC*; Boc = CC(C)(C)OC(=O)*
Overview of reported TGI across a group of compounds:

Entry COc1ccc(N2C(=O)C3c4[nH]c5ccccc5c4C4CC(C)CC(C)C4C3C2=O)cc1 (stereo not drawn) : reported TGI = ? > 100 µM

Could you do the same for `Oc1ccccc1CNCC12CC3CC(CC(C3)C1)C2` , please? 26.9 µM

Next compound up: `N#Cc1cc(-c2nc3c(F)cccc3s2)ccc1N` > 100 µM

Then this compound: `CCN(CC)c1c(-c2c(N(CC)CC)c(OC(C)=O)c3sccn3c2=O)c(=O)n2ccsc2c1OC(C)=O` > 100 µM

Also `C=C1C(=O)O[C@H]2[C@H]1CCC(/C=N/c1ncc(Br)cc1N)=C\CC[C@@]1(C)O[C@@H]21` , if possible. 3.01 µM

Same lookup for CC(NC(=O)C(Cc1ccc(OCC[N+](C)(C)C)cc1)NC(=O)OC(C)(C)C)C(=O)NC(Cc1ccccc1)C(=O)NCC(N)=O (stereo not drawn) (Boc-Y(Ethyl(2-NMe3+))AFG-NH2; configuration not given here) , please. > 100 µM

***
Any idea what its TGI is? The compound is `COc1cccc(-c2nc3ccccc3c(=O)[nH]2)c1OC` > 100 µM

Next record, please: `COCn1cnc2c(=O)n(-c3ccc(OC)cc3)c(=S)n(-c3ccc(OC)cc3)c21` > 100 µM

* * *

compounds and their reported TGI
# Test system: T-47D breast
# assay.info: NCI tumour cell line growth inhibition, 48 h
Dear colleague, please return just the value in µM, with no unit written.

Some solved cases for reference:
Quick one: TGI of `COc1ccc(/C=C(\C#N)n2nnc3ccccc32)cc1` ? 72.9

Repeat for the following compound: `CC1(C)C/C(=N/O)c2c(nc3ccc4ccccc4c3c2-c2ccc(Cl)cc2)C1` 34.2

Also Nc1nc(N)c2c(n1)NC(c1ccc(F)cc1)C1CCc3ccccc3C1=N2 (stereo not drawn) , if possible. 17.7

New cases:
Returns the measured TGI for the input compound. Input: `O=C(Nc1ccc2[nH]c(=S)sc2c1)Nc1ccccc1F` 33.4

Also check CC1(c2cccc(Cl)c2)CC(c2cccc(Cl)c2)=C(C#N)C(=C(C#N)C#N)N1 (stereo not drawn) 38

Check `Cc1c(F)c(N)c2c(=O)cc(-c3ccc(N)c(F)c3)oc2c1F` too. 16

Would you mind doing `C=C1C(=O)O[C@H]2[C@H](OC(C)=O)[C@@H](C)CCC/C(C)=C/CC[C@@]3(C)O[C@@H]3C[C@@H]12` as well? 3.62

`CCC[CH2][Sn]([CH2]CCC)([CH2]CCC)[O]C(=O)c1ccc(Cl)cc1Cl` ? 0.289

Now the compound `CCOC(=O)[C@@H]1CCN2CN(c3ccc(OC)cc3)N=C(c3ccccc3)[C@@]12c1ccccc1` 74.6
